Biological target: T1, PABP1(J), the PABC domain of Leishmania major PABP1 prepared as segment J (Leishmania major, UniProt E9AFX7 482-560)
T1 construct: 15N,13C-labelled form used in NMR; also called PABP1 PABC domain; PABC1; source: E. coli NiCo21(DE3), synthetic reading frame, purified (cobalt IDA resin, gel filtration); also co-expressed with eIF4E4(v) from a dual expression plasmid
T1 sequence: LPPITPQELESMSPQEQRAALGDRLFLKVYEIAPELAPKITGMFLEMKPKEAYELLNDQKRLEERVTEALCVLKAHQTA
Experiment: MST; labelled eIF4E4(iv) held constant, non-labelled PABP1 section varied (16 tubes); Nanotemper Monolith NT.115
Details: both partners purified
Ends that are not written are not given here.

BINDER	Kd
PTRFSPATVPRHHMNPNATEFMPGRRNGPDGGLEALPTSTAD (domain or fragment, also: Alexa 647 label (Red-Maleimide) for MST)	22 nM
